- Test system: SK-MEL-2 melanoma
- Method Summary: NCI-60 one-dose screen, 48 h (100 = growth as untreated, 0 = no growth, -100 = all killed)
- Particulars: 10 µM
About 83,000 compounds went through this panel and 20% of them were active in at least one assay; those are over-represented in the sample as a whole.
Measure Name: growth (%)
# number only, unit % dropped from output

(Q) Let me know recorded growth for `O=c1[nH]c(O)c(/C=C2/C=Nc3ccccc32)[nH]1` , thanks.
(A) 104

(Q) Let me know recorded growth for CCCCCCCCCCC(C)Br (stereo not drawn) , thanks.
(A) 104

(Q) Let me know recorded growth for NC(C(=O)O)C(O)c1ccco1 (stereo not drawn) , thanks.
(A) 115

(Q) Let me know recorded growth for `O=C1C=CC(=O)N1c1ccc(I)cc1Cl` , thanks.
(A) 114

(Q) Let me know recorded growth for `Cc1nc2ccccc2c(C(=O)O)c1O` , thanks.
(A) 313

(Q) Let me know recorded growth for `CC1=CC(=O)c2ccccc2C1=O` , thanks.
(A) 110

(Q) Let me know recorded growth for `O=C(O)[C@@H]1[C@H]2C[C@H]3c4[nH]c5ccccc5c4CCN3C[C@@H]2CC[C@@H]1O` , thanks.
(A) 30.5

(Q) Let me know recorded growth for `CCOC(=O)CNN` , thanks.
(A) 113

(Q) Let me know recorded growth for `CC(C)(N)COS(=O)(=O)O` , thanks.
(A) 117

(Q) Let me know recorded growth for COc1cc(C2c3cc4c(cc3C3OC(=O)C2C3CO)OCO4)cc(OC)c1OC (stereo not drawn) , thanks.
(A) 7.33

(Q) Let me know recorded growth for CN1C(=O)CN2CCc3ccccc3C2c2cc(Cl)ccc21 (stereo not drawn) , thanks.
(A) 81.7

(Q) Let me know recorded growth for `COCCCNC(=O)c1nnn2c1nc(N)c1cc(Cl)ccc12` , thanks.
(A) 74.2

(Q) Let me know recorded growth for `CCOC(=O)C/C(C)=N\O` , thanks.
(A) 107
